# system_under_test: T1, mature myostatin (recombinant, dimeric) (mouse polyprotein used for in-house …, UniProt O08689 268-376)
# T1 construct: also called GDF-8; recombinant myostatin
# T1 sequence: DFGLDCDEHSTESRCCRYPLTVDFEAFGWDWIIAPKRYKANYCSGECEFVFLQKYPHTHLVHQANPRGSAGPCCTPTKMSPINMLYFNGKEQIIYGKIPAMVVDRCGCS
# procedure_text: BIAcore, low density myostatin surface, methods as in 4.3
Recorded Kd by entry
Please state the value followed by its unit.

binder	Kd
H2L2 N54Q (H2L2-N54Q) (antibody, human IgG1, kappa, V domains shown) VH: QVQLVQSGAEVKKPGASVKVSCKASGYSFTGYFMHWVRQAPGQGLEWMGNIYPYQGVSNYNQRFKARVTMTTDTSTSTAYMELRSLRSDDTAVYYCARRYYYGTGPADWYFDVWGQGTLVTVSS VL: DIQMTQSPSSLSASVGDRVTITCKASQDINSYLSWFQQKPGKAPKSLIYRANRLVDGVPSKFSGSGSGTDYTLTISSLQPEDFATYYCLQCDEFPLTFGQGTKLEIKR	28 nM

Input: Looking for the measured Kd of H2L2 (antibody, human IgG1, kappa, V domains shown, Humanised, human IgG1 wild type/kappa) VH: QVQLVQSGAEVKKPGASVKVSCKASGYSFTGYFMHWVRQAPGQGLEWMGNIYPYNGVSNYNQRFKARVTMTTDTSTSTAYMELRSLRSDDTAVYYCARRYYYGTGPADWYFDVWGQGTLVTVSS VL: DIQMTQSPSSLSASVGDRVTITCKASQDINSYLSWFQQKPGKAPKSLIYRANRLVDGVPSKFSGSGSGTDYTLTISSLQPEDFATYYCLQCDEFPLTFGQGTKLEIKR , can you help?
Output: 12 nM

Input: Next up: H2L2 C91S (H2L2-C91S) (antibody, human IgG1, kappa, V domains shown, Humanised, human IgG1/kappa; also called base molecule; base H2L2-C91S) VH: QVQLVQSGAEVKKPGASVKVSCKASGYSFTGYFMHWVRQAPGQGLEWMGNIYPYNGVSNYNQRFKARVTMTTDTSTSTAYMELRSLRSDDTAVYYCARRYYYGTGPADWYFDVWGQGTLVTVSS VL: DIQMTQSPSSLSASVGDRVTITCKASQDINSYLSWFQQKPGKAPKSLIYRANRLVDGVPSKFSGSGSGTDYTLTISSLQPEDFATYYCLQSDEFPLTFGQGTKLEIKR
Output: 16.6 nM

Input: Next up: 10B3 chimera (antibody, human IgG1, kappa, V domains shown, Mouse variable regions on human IgG1/kappa wild type constant regions; also called HCLC; HcLc) VH: EVQLQQSGPELVKPGASVKISCKASGYSFTGYFMHWVKQSHGNILDWIGNIYPYNGVSNYNQRFKAKATLTVDKSSSTAYMELRSLTSEDSAVYYCARRYYYGTGPADWYFDVWGTGTLVTVSS VL: DIKMTQSPSSMYASLRERVTITCKASQDINSYLSWFQQKPGKSPKTLIYRANRLVDGVPSRFSGSGSGQDYSLTISSLEYEDMGIYYCLQCDEFPLTFGAGTKLELKR
Output: 4.44 nM

Data origin, for the record: patent US20110256132A1
